Numbers sourced from paper PMC9779606.

tested on: E. coli NCTC 10538; experiment: MIC, twofold serial microdilution, standard strains; details: E. coli NCTC 10538, standard strain
Form field: MIC (one value per entry).

Worked set:
>>> observed_value("CC(NC(=S)[N-]c1cccc(C(F)(F)F)c1)c1ccccc1.CC(NC(=S)[N-]c1cccc(C(F)(F)F)c1)c1ccccc1.[Cu+2] (racemic) [Cu2]")
"≥256 µg/mL"
>>> observed_value("FC(F)(F)c1cccc([N-]C(=S)Nc2cccc(Br)c2)c1.FC(F)(F)c1cccc([N-]C(=S)Nc2cccc(Br)c2)c1.[Cu+2] [Cu4]")
"128 µg/mL"
>>> observed_value("FC(F)(F)c1cccc([N-]C(=S)NCc2ccccc2)c1.FC(F)(F)c1cccc([N-]C(=S)NCc2ccccc2)c1.[Cu+2] [Cu3]")
"≥256 µg/mL"

Entry FC(F)(F)c1cccc([N-]C(=S)NCCc2ccccc2)c1.FC(F)(F)c1cccc([N-]C(=S)NCCc2ccccc2)c1.O.[Cu+2] [Cu1] has what MIC?
≥256 µg/mL

Entry O.O=[N+]([O-])c1cc(NC(=S)[N-]c2cccc(C(F)(F)F)c2)ccc1Cl.O=[N+]([O-])c1cc(NC(=S)[N-]c2cccc(C(F)(F)F)c2)ccc1Cl.[Cu+2] [Cu5] has what MIC?
>256 µg/mL

---

Form field: MIC (one value per entry).
system: S. aureus 567; experiment: MIC, hospital methicillin-resistant strains (MRSA); conditions: hospital MRSA strain S. aureus 567
Please make sure the unit comes right after the number.

Worked set:
>>> observed_value("O.O=[N+]([O-])c1cc(NC(=S)[N-]c2cccc(C(F)(F)F)c2)ccc1Cl.O=[N+]([O-])c1cc(NC(=S)[N-]c2cccc(C(F)(F)F)c2)ccc1Cl.[Cu+2]")
"2 mg/L"
>>> observed_value("FC(F)(F)c1cccc([N-]C(=S)Nc2cccc(Br)c2)c1.FC(F)(F)c1cccc([N-]C(=S)Nc2cccc(Br)c2)c1.[Cu+2]")
"8 mg/L"
>>> observed_value("FC(F)(F)c1cccc([N-]C(=S)NCCc2ccccc2)c1.FC(F)(F)c1cccc([N-]C(=S)NCCc2ccccc2)c1.O.[Cu+2]")
"64 mg/L"

Entry CC(NC(=S)[N-]c1cccc(C(F)(F)F)c1)c1ccccc1.CC(NC(=S)[N-]c1cccc(C(F)(F)F)c1)c1ccccc1.[Cu+2] (racemic) has what MIC?
8 mg/L

Entry FC(F)(F)c1cccc([N-]C(=S)NCc2ccccc2)c1.FC(F)(F)c1cccc([N-]C(=S)NCc2ccccc2)c1.[Cu+2] has what MIC?
64 mg/L

---

test system: C. albicans ATCC 90028; test: MIC, twofold serial microdilution, standard fungal strains; conditions: C. albicans ATCC 90028, standard strain
ENDPOINT_LABEL: MIC (µg/mL)
Reply numerically in µg/mL, unit not repeated.

Worked set:
>>> observed_value("CC(NC(=S)[N-]c1cccc(C(F)(F)F)c1)c1ccccc1.CC(NC(=S)[N-]c1cccc(C(F)(F)F)c1)c1ccccc1.[Cu+2] (racemic)")
128
>>> observed_value("FC(F)(F)c1cccc([N-]C(=S)NCc2ccccc2)c1.FC(F)(F)c1cccc([N-]C(=S)NCc2ccccc2)c1.[Cu+2]")
32
>>> observed_value("FC(F)(F)c1cccc([N-]C(=S)NCCc2ccccc2)c1.FC(F)(F)c1cccc([N-]C(=S)NCCc2ccccc2)c1.O.[Cu+2]")
128

Now look at this entry.
Entry O.O=[N+]([O-])c1cc(NC(=S)[N-]c2cccc(C(F)(F)F)c2)ccc1Cl.O=[N+]([O-])c1cc(NC(=S)[N-]c2cccc(C(F)(F)F)c2)ccc1Cl.[Cu+2] has what MIC?
128

---

Form field: pIC50 (one value per entry).
test system: SW620 (metastatic colon cancer); test: Cytotoxicity, MTT assay; assay type: cell-based, human; conditions: 72 h, mean SD
A value of pIC50 is the negative decimal logarithm of a concentration given in moles per litre.

>>> observed_value("O.O=[N+]([O-])c1cc(NC(=S)[N-]c2cccc(C(F)(F)F)c2)ccc1Cl.O=[N+]([O-])c1cc(NC(=S)[N-]c2cccc(C(F)(F)F)c2)ccc1Cl.[Cu+2]")
4.71

Which pIC50 is reported with SW620 (metastatic colon cancer) for this entry: FC(F)(F)c1cccc([N-]C(=S)NCCc2ccccc2)c1.FC(F)(F)c1cccc([N-]C(=S)NCCc2ccccc2)c1.O.[Cu+2] ?
4.20

Which pIC50 is reported with SW620 (metastatic colon cancer) for this entry: FC(F)(F)c1cccc([N-]C(=S)Nc2cccc(Br)c2)c1.FC(F)(F)c1cccc([N-]C(=S)Nc2cccc(Br)c2)c1.[Cu+2] ?
4.16

Which pIC50 is reported with SW620 (metastatic colon cancer) for this entry: CC(NC(=S)[N-]c1cccc(C(F)(F)F)c1)c1ccccc1.CC(NC(=S)[N-]c1cccc(C(F)(F)F)c1)c1ccccc1.[Cu+2] (racemic) ?
4.63

Which pIC50 is reported with SW620 (metastatic colon cancer) for this entry: FC(F)(F)c1cccc([N-]C(=S)NCc2ccccc2)c1.FC(F)(F)c1cccc([N-]C(=S)NCc2ccccc2)c1.[Cu+2] ?
4.35

Which pIC50 is reported with SW620 (metastatic colon cancer) for this entry: N.N.[Cl][Pt][Cl] [Cisplatin, cisplatin, reference compound] ?
5.17

---

test system: S. aureus 514; experiment: MIC, hospital methicillin-resistant strains (MRSA); conditions: hospital MRSA strain S. aureus 514
ENDPOINT_LABEL: MIC (µg/mL)
Reply numerically in µg/mL, unit not repeated.

>>> observed_value("O.O=[N+]([O-])c1cc(NC(=S)[N-]c2cccc(C(F)(F)F)c2)ccc1Cl.O=[N+]([O-])c1cc(NC(=S)[N-]c2cccc(C(F)(F)F)c2)ccc1Cl.[Cu+2] [Cu5]")
2

Entry FC(F)(F)c1cccc([N-]C(=S)Nc2cccc(Br)c2)c1.FC(F)(F)c1cccc([N-]C(=S)Nc2cccc(Br)c2)c1.[Cu+2] [Cu4] has what MIC?
8

Entry CC(NC(=S)[N-]c1cccc(C(F)(F)F)c1)c1ccccc1.CC(NC(=S)[N-]c1cccc(C(F)(F)F)c1)c1ccccc1.[Cu+2] (racemic) [Cu2] has what MIC?
16

Entry FC(F)(F)c1cccc([N-]C(=S)NCc2ccccc2)c1.FC(F)(F)c1cccc([N-]C(=S)NCc2ccccc2)c1.[Cu+2] [Cu3] has what MIC?
64

Entry FC(F)(F)c1cccc([N-]C(=S)NCCc2ccccc2)c1.FC(F)(F)c1cccc([N-]C(=S)NCCc2ccccc2)c1.O.[Cu+2] [Cu1] has what MIC?
64

---

test system: S. aureus 522; experiment: MIC, hospital methicillin-resistant strains (MRSA); conditions: hospital MRSA strain S. aureus 522
Form field: MIC (one value per entry).
Reply numerically in µg/mL, unit not repeated.

Worked set:
>>> observed_value("FC(F)(F)c1cccc([N-]C(=S)NCCc2ccccc2)c1.FC(F)(F)c1cccc([N-]C(=S)NCCc2ccccc2)c1.O.[Cu+2]")
64
>>> observed_value("FC(F)(F)c1cccc([N-]C(=S)Nc2cccc(Br)c2)c1.FC(F)(F)c1cccc([N-]C(=S)Nc2cccc(Br)c2)c1.[Cu+2]")
8
>>> observed_value("CC(NC(=S)[N-]c1cccc(C(F)(F)F)c1)c1ccccc1.CC(NC(=S)[N-]c1cccc(C(F)(F)F)c1)c1ccccc1.[Cu+2] (racemic)")
16
>>> observed_value("FC(F)(F)c1cccc([N-]C(=S)NCc2ccccc2)c1.FC(F)(F)c1cccc([N-]C(=S)NCc2ccccc2)c1.[Cu+2]")
64

Now look at this entry.
Entry O.O=[N+]([O-])c1cc(NC(=S)[N-]c2cccc(C(F)(F)F)c2)ccc1Cl.O=[N+]([O-])c1cc(NC(=S)[N-]c2cccc(C(F)(F)F)c2)ccc1Cl.[Cu+2] has what MIC?
2

---

test system: S. epidermidis 437; test: MIC, hospital methicillin-resistant strains (MRSE); settings: hospital MRSE strain S. epidermidis 437
ENDPOINT_LABEL: MIC (µg/mL)
Reply numerically in µg/mL, unit not repeated.

Worked set:
>>> observed_value("FC(F)(F)c1cccc([N-]C(=S)NCCc2ccccc2)c1.FC(F)(F)c1cccc([N-]C(=S)NCCc2ccccc2)c1.O.[Cu+2]")
64
>>> observed_value("FC(F)(F)c1cccc([N-]C(=S)NCc2ccccc2)c1.FC(F)(F)c1cccc([N-]C(=S)NCc2ccccc2)c1.[Cu+2]")
64
>>> observed_value("O.O=[N+]([O-])c1cc(NC(=S)[N-]c2cccc(C(F)(F)F)c2)ccc1Cl.O=[N+]([O-])c1cc(NC(=S)[N-]c2cccc(C(F)(F)F)c2)ccc1Cl.[Cu+2]")
2
>>> observed_value("CC(NC(=S)[N-]c1cccc(C(F)(F)F)c1)c1ccccc1.CC(NC(=S)[N-]c1cccc(C(F)(F)F)c1)c1ccccc1.[Cu+2] (racemic)")
16

Entry FC(F)(F)c1cccc([N-]C(=S)Nc2cccc(Br)c2)c1.FC(F)(F)c1cccc([N-]C(=S)Nc2cccc(Br)c2)c1.[Cu+2] has what MIC?
8
